# % inhibition per record follows
# tgt: HLA-DP4 (Homo sapiens, UniProt P04440+P20036)
# Sequence (P20036 29-260): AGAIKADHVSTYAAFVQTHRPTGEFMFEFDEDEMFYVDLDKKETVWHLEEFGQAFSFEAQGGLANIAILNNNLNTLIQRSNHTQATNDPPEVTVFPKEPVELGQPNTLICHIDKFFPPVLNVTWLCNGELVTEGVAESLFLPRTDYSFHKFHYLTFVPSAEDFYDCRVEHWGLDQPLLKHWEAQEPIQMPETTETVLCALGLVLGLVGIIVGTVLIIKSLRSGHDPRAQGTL
# Sequence (P04440 30-258): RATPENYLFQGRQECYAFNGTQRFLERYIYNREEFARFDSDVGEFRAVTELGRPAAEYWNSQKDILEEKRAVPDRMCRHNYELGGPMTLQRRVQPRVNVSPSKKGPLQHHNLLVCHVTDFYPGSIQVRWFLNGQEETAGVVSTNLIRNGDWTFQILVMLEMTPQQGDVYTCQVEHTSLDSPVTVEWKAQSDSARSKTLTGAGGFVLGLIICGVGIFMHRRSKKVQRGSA
# test_description: DP4 competition assay with biotinylated Hep B peptide
# stated_conditions: inhibition of biotinylated Hep B binding to HLA-DP4; 5 fold excess test peptide, equal amount for unlabelled Hep B
Where no end group is shown, it is not given here. [ ]: non-standard residue; d: D form. hCit = NC(=O)NCCCC[C@H](N)C(=O)O
Record the value in %, omitting the unit from your answer.

State the recorded % inhibition for this entry: KFASFID-Hcit-VRFLEQQN-Hcit-MLE (KFASFID[hCit]VRFLEQQN[hCit]MLE) [Cyk8 101-120 Hcit] 71

Repeat with NYID-Hcit-VRFLEQQN-Hcit-ILLAEL (NYID[hCit]VRFLEQQN[hCit]ILLAEL) [Vimentin 116-135 Hcit] 44

For the next question, use this substance.
State the recorded % inhibition for this entry: LREYQELMNV-hcit-LALDIEI (LREYQELMNV[hCit]LALDIEI) [Cyk8 371-388 Hcit] 72

----------
# % inhibition per record follows
# tgt: HLA-DP4 (Homo sapiens, UniProt P04440+P20036)
# Sequence (P20036 29-260): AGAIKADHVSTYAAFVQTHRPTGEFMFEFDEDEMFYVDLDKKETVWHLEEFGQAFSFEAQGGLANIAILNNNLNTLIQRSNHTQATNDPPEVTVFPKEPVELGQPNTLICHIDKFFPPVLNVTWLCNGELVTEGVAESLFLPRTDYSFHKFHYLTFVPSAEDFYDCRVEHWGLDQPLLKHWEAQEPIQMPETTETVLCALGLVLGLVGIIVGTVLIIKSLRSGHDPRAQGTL
# Sequence (P04440 30-258): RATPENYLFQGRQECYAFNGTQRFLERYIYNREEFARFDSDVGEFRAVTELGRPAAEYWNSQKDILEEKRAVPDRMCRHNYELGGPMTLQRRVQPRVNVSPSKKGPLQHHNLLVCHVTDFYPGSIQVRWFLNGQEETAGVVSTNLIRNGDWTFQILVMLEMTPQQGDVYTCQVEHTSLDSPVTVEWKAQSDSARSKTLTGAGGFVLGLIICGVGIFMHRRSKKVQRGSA
# test_description: DP4 competition assay with biotinylated Hep B peptide
# stated_conditions: inhibition of biotinylated Hep B binding to HLA-DP4; 5 fold excess test peptide, equal amount for unlabelled Hep B
Where no end group is shown, it is not given here. [ ]: non-standard residue; d: D form. hCit = NC(=O)NCCCC[C@H](N)C(=O)O
Record the value in %, omitting the unit from your answer.

Record excerpt, results attached:
State the recorded % inhibition for this entry: hcit-CPLL-hcit-PWALTFSYGRALQ ([hCit]CPLL[hCit]PWALTFSYGRALQ) [Aldolase A 289-307 Hcit] 45

Repeat with KDGADFAKWRCVLKIGEH [Aldolase A 140-157 WT, reference compound] 29

Repeat with IGGVILFHETLYQKADDGRP [Aldolase A 74-93 WT, reference compound] 27

For the next question, use this substance.
State the recorded % inhibition for this entry: LEQQN-hcit-MLET-hcit-WSLLQQQ-hcit-T (LEQQN[hCit]MLET[hCit]WSLLQQQ[hCit]T) [Cyk8 112-131 Hcit] 64

----------
# Test system: HLA transgenic mice
# test_description: T cell response to Hcit peptides in HLA transgenic mice (screening, ex vivo ELISpot)
# Set-up: species or system mouse
# stated_conditions: yes/no; Hcit peptide with CpG/MPLA
Where no end group is shown, it is not given here. [ ]: non-standard residue; d: D form. hCit = NC(=O)NCCCC[C@H](N)C(=O)O
readout_label: T cell response

Record excerpt, results attached:
State the recorded T cell response for this entry: LPLVDTHS-Hcit-RTLL-Hcit-TVETRDGQV [Vimentin 431-454 Hcit] no

Repeat with QIDVDVS-Hcit-PDLTAALRDVRQQ [Vimentin 255-275 Hcit] no

Repeat with NYID-Hcit-VRFLEQQN-Hcit-ILLAEL (NYID[hCit]VRFLEQQN[hCit]ILLAEL) [Vimentin 116-135 Hcit] yes

Repeat with EAEEWY-Hcit-S-Hcit-FADLSEAAN [Vimentin 286-303 Hcit] no

Repeat with hcit-DGADFA-hcit-WRCVL-hcit-IGEH ([hCit]DGADFA[hCit]WRCVL[hCit]IGEH) [Aldolase A 140-157 Hcit] yes

Repeat with HACTQ-hcit-FSH(N)EEIAMATVTA (HACTQ[hCit]FSHNEEIAMATVTA; not fully specified; printed as HACTQ-hcit-FSH(N)EEIAMATVTA) [Aldolase A 238-256 Hcit] yes

Next:
State the recorded T cell response for this entry: hcit-CPLL-hcit-PWALTFSYGRALQ ([hCit]CPLL[hCit]PWALTFSYGRALQ) [Aldolase A 289-307 Hcit] no

Repeat with hcit-LALDIEIATYR-hcit-LLEGEE ([hCit]LALDIEIATYR[hCit]LLEGEE) [Cyk8 381-399 Hcit] Yes

Repeat with KFASFID-Hcit-VRFLEQQN-Hcit-MLE (KFASFID[hCit]VRFLEQQN[hCit]MLE) [Cyk8 101-120 Hcit] Yes

Repeat with LREYQELMNV-hcit-LALDIEI (LREYQELMNV[hCit]LALDIEI) [Cyk8 371-388 Hcit] Yes

Repeat with LSDHHVYLEGTLL-hcit-PNMVT (LSDHHVYLEGTLL[hCit]PNMVT) [Aldolase A 217-235 Hcit] no

----------
# System: HLA-HHDII/DP4 mice
# test_description: Ex vivo IFNγ ELISpot after peptide immunisation, HHDII/DP4 mice
# Format: in vivo, mouse
# stated_conditions: splenocytes after 7 days culture
readout_label: IFNγ response in presence of CD4 blocking antibody

Record excerpt, results attached:
State the recorded IFNγ response in presence of CD4 blocking antibody for this entry: GSHAGN-Hcit-LAMQEFMILPVGAA [Alpha enolase 156-176 Hcit] lost

Repeat with RNELESYAYSL-Hcit-NQIGD-Hcit- [BiP 562-579 Hcit] loss of response

Repeat with EELNMDLFRSTM-Hcit-PVQ-Hcit-VL [BiP 328-346 Hcit] loss of response

Repeat with Hcit-MALDIEIATYR-Hcit-LLEGEE [Vimentin 390-408 Hcit] loss of response

Repeat with RSERLA-Hcit-YNQLLRIEEELGS [Alpha enolase 400-419 Hcit] lost

Repeat with DVAASEFFRSG-Hcit-YDLDF-Hcit-SP [Alpha enolase 245-264 Hcit] lost

Next:
State the recorded IFNγ response in presence of CD4 blocking antibody for this entry: FSLADAINTEF-Hcit-NTRTNE-Hcit-VELQ [Vimentin 86-108 Hcit] loss of response

Repeat with EDFSETLTRA-Hcit-FEELNMDLFR [BiP 316-336 Hcit] loss of response

----------
# tgt: HLA-DP4 (Homo sapiens, UniProt P04440+P20036)
# Sequence (P20036 29-260): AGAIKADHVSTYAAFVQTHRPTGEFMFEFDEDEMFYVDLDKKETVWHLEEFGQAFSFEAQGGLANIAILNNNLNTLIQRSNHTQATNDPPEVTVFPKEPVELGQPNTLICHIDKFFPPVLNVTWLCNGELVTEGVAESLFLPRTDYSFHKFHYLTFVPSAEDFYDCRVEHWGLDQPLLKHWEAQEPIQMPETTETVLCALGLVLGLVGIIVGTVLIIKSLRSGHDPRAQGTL
# Sequence (P04440 30-258): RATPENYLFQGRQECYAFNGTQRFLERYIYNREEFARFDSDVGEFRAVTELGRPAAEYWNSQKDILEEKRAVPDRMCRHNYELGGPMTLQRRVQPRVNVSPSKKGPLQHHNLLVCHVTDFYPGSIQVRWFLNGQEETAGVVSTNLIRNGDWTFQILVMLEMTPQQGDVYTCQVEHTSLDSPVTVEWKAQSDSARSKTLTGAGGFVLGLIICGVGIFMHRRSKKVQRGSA
# test_description: DP4 competition assay with biotinylated Hep B peptide
# stated_conditions: inhibition of biotinylated Hep B binding to HLA-DP4; 5 fold excess test peptide, equal amount for unlabelled Hep B
# Protocol: 2×T175 gave 2.5×10^7 B16 HHDII/DP4 (B16F1 β2M H2Ab1 dKO A35 HHDII/DP4 H7/2E9/F9 p14) cells. This was enough for 5 preps using the following protocol with Mem-PER™ Plus Membrane Protein Extraction Kit (thermo-scientific cat #89842). […] Lysate/peptide mix was added to the plates at 100 μl/well and incubated for 4 hrs at room temperature. […] The reaction was stopped with 50 μl of 2N H2SO4 and plates read plate at 450 nm. […]
Where no end group is shown, it is not given here. [ ]: non-standard residue; d: D form. hCit = NC(=O)NCCCC[C@H](N)C(=O)O
readout_label: % inhibition
Answer format: number, then unit.

Record excerpt, results attached:
State the recorded % inhibition for this entry: hcit-DGADFA-hcit-WRCVL-hcit-IGEH ([hCit]DGADFA[hCit]WRCVL[hCit]IGEH) [Aldolase A 140-157 Hcit] 76%

Repeat with HACTQ-hcit-FSH(N)EEIAMATVTA (HACTQ[hCit]FSHNEEIAMATVTA; not fully specified; printed as HACTQ-hcit-FSH(N)EEIAMATVTA) [Aldolase A 238-256 Hcit] 73%

For the next question, use this substance.
State the recorded % inhibition for this entry: LSDHHVYLEGTLL-hcit-PNMVT (LSDHHVYLEGTLL[hCit]PNMVT) [Aldolase A 217-235 Hcit] 84%
